Test: Plasma pharmacokinetics, non-compartmental analysis
Type: in vivo, human
Conditions: human, plasma, iv, 20 mg
reported-metric: AUC(0-t) (ng·h/mL)
Value expressed in ng·h/mL; do not type the unit.

Field request: AUC(0-t) | item: Cc1ccc(C(=O)N(CCCN)C(c2nc3snc(C)c3c(=O)n2Cc2ccccc2)C(C)C)cc1 (stereo not shown)
882

---

Assay: Plasma pharmacokinetics, non-compartmental analysis
Type: in vivo, human
Conditions: human, plasma, iv, 15 mg
reported-metric: MRT

Query (compound): Cc1ccc(C(=O)N(CCCN)C(c2nc3snc(C)c3c(=O)n2Cc2ccccc2)C(C)C)cc1 (stereo not shown) [AZD4877] ; field requested: MRT
22.9 h
